All values here come from PubChem BioAssay (EPA / NIEHS).

# Read-out: Monocyte Chemoattractant Protein-1 (MCP1), CCL2 (gene 6347)
# assay.info: BSK_CASM3C_MCP1: BioMAP Diversity Plus: CASM3C Assay for Monocyte Chemoattractant Protein-1 (MCP1) Biomarker Activity (AID 2283046);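 note: MCP-1 level quantified by ELISA 24 h after dosing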
# condition.summary: primary human coronary artery smooth muscle cells; actives raise or lower the signal
Activity calls are given as the source filed them. Rule for the calls: active = hit-call score of the fitted dose curve at least 0.9, where 1 is the maximum; inactive = score below 0.9.
Possible outcomes: active, inactive

> print(dat)
                                    compound       cat
 1                         C=CCCCCCCCCC(=O)O  inactive
 2                        C1N2CN3CN1CN(C2)C3  inactive
 3  Fc1ccccc1[C@@H](F)COC1CCC(Nc2ncnc3[nH]ncc23)CC1 (some centres undefined)  inactive
 4                Cn1c(=O)c2c(ncn2C)n(C)c1=O  inactive
 5  Cc1[nH]cnc1C[C@H]1CCc2c(C)c3ccccc3n2C1=O  inactive
 6  CNS(=O)(=O)c1cc(C(=O)N2CCC(CCN3C4CCC3CC(n3c(C)nc5ccccc53)C4)(c3cccc(F)c3)CC2)c(Cl)cc1F (centres undefined)  inactive
 7                               O=C1CCCCCN1  inactive
 8  CCOc1cccc(-n2cc(C(=O)N3CCN(c4cc(C(=O)O)c5ccccc5c4)CC3)nc2-c2ccc(C)cc2)c1    active
 9    COC(=O)c1c(Cl)c(Cl)c(C(=O)OC)c(Cl)c1Cl  inactive
10  O=C(NS(=O)(=O)/C=C/c1ccccc1)c1ccc(F)cc1Cl  inactive
11       Cc1c(-c2cccnc2)c2ccccc2n1CCCCC(=O)O  inactive
12                 CC1(C)C(=O)N(Br)C(=O)N1Br  inactive
13  COc1ccc(/C=C/S(=O)(=O)NC(=O)c2ccc(C)cc2Cl)cc1  inactive
14  CC(C)c1cccc(C(C)C)c1N1C(=O)c2ccc(O)cc2C1=O  inactive
15  CCCN(C1CCN(C(=O)C2CCNCC2)CC1)[C@@H]1CCc2ccc(OC)cc2C1  inactive
16  CCn1nc(Cc2ccccc2)cc1C1CCN(C[C@H]2C[C@H](N(C)[C@@H](C(=O)O)C(C)C)C[C@@H]2c2cccc(F)c2)CC1  inactive
17  COc1ccc(-n2nc(C(F)F)cc2-c2ccc(S(C)=O)cc2)cc1 (centres undefined)  inactive
18                             Cc1ccc(N)cc1O  inactive
19  Nc1nc2ncc(CNc3ccc(C(=O)N[C@@H](CCC(=O)O)C(=O)O)cc3)nc2c(=O)[nH]1  inactive
20  O=C(CCCCCCCCc1cccnc1)N1CCC(C=C(c2ccccc2)c2ccccc2)CC1    active
21                               CCNc1ccccc1  inactive
22                  Clc1nc(Cl)c(Cl)c(Cl)c1Cl  inactive
23                               CCCC(=O)OCC  inactive
24                   Oc1ccc2c(c1)-c1ccccc1C2  inactive

* * *

# Read-out: Cytochrome P450 3A7 (Homo sapiens)
# assay.info: LTEA_HepaRG_CYP3A7: Life Technologies and Expression Analysis (LTEA) Assay for CYP3A7 using HepaRG (AID 2283492)
# condition.summary: mRNA level, 48 h; actives raise or lower the signal
Calls of active or inactive are those of the source. Rule for the calls: active = hit-call score of the fitted dose curve at least 0.9, where 1 is the maximum; inactive = score below 0.9.
Labels: 1 (yes) = active, 0 (no) = inactive

compound	cat
Nc1nc2ncc(CNc3ccc(C(=O)N[C@@H](CCC(=O)O)C(=O)O)cc3)nc2c(=O)[nH]1	0 (no)
CC(C)CC(C)(O)C#CC(C)(O)CC(C)C (centres undefined)	0 (no)
COCCOc1cc2cc(C(=O)NC3CCN(C(C)C)CC3)n(CC(=O)Nc3ccc(Cl)cn3)c2cn1	1 (yes)
CC(C)CCCCCCCOC(=O)CCCCC(=O)OCCCCCCCC(C)C	0 (no)
CC(=O)OC[C@H]1O[C@@](COC(C)=O)(O[C@H]2O[C@H](COC(C)=O)[C@@H](OC(C)=O)[C@H](OC(C)=O)[C@H]2OC(C)=O)[C@@H](OC(C)=O)[C@@H]1OC(C)=O	0 (no)
O=c1n(CC2CO2)c(=O)n(CC2CO2)c(=O)n1CC1CO1 (centres undefined)	0 (no)
COc1ccc(/C=C/S(=O)(=O)NC(=O)c2ccc(C)cc2Cl)cc1	1 (yes)
CCOc1cccc(-n2cc(C(=O)N3CCN(c4cc(C(=O)O)c5ccccc5c4)CC3)nc2-c2ccc(C)cc2)c1	0 (no)
CCOCCOCCOCCO	0 (no)
O=C(CCCCCCCCc1cccnc1)N1CCC(C=C(c2ccccc2)c2ccccc2)CC1	0 (no)
CCCCCCc1ccc(O)cc1O	0 (no)
O=C(O)c1cccc(N(Cc2cccnc2)c2ccc(OC(F)F)c(OC(F)F)c2)c1	0 (no)
C1=CCCC=CCCC=CCC1	0 (no)
CCCC(=O)OCC	0 (no)
O=C(O)CC(O)C(=O)O (centres undefined)	0 (no)
CN(C)c1ccc(Cc2ccc(N(C)C)cc2)cc1	1 (yes)
CCCCCCCCCCCCCCCO	0 (no)
CCOC(=O)COc1ccc2c(c1)CC(NCC(O)c1cccc(Cl)c1)CC2 (centres undefined)	0 (no)
CCOC(=O)CC(CC(=O)OCC)(OC(C)=O)C(=O)OCC	0 (no)
COc1cccc(-c2ccc(/C=C\CN3CCCCCC3)cc2Cl)c1	1 (yes)
Cc1ccc(S(=O)(=O)O)cc1C	0 (no)
CC1=CC(=O)CC(C)(C)C1	0 (no)
CC(O)CN(CCN(CC(C)O)CC(C)O)CC(C)O (centres undefined)	0 (no)
COC(=O)c1c(Cl)c(Cl)c(C(=O)OC)c(Cl)c1Cl	0 (no)

* * *

# assay.info: CCTE_Shafer_MEA_acute_per_network_burst_electrodes_number_mean: CCTE's Neural Acute Assay for Mean Number of Electrodes in a Network Burst, Shafer Lab (AID 2284021);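 note: curves fitted for decreases only so hits reduce electrodes per burst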
Activity calls are given as the source filed them. Rule for the calls: active = hit-call score of the fitted dose curve at least 0.9, where 1 is the maximum; inactive = score below 0.9.
readout.label: outcome

> print(dat)
                                        smi    result
1  O=C(O)c1cc(N=Nc2ccc(S(=O)(=O)Nc3ccccn3)cc2)ccc1O  inactive
2  COc1ccc2sc(C(=O)Nc3nnn[nH]3)c(OC(C)C)c2c1  inactive
3                Cn1c(=O)c2c(ncn2C)n(C)c1=O  inactive

* * *

# assay.info: STM_H9_NormalizedViability: Cytotoxicity Assessment at 120 hours in the Stemina devTOX quickPredict H9 human embryonic stem cell (hESC)-based Assay (AID 2283784)
Inconclusive results are not listed. Active and inactive are the calls of the source. Rule for the calls: active = hit-call score of the fitted dose curve at least 0.9, where 1 is the maximum; inconclusive = response in the unintended direction; inactive = score below 0.9.
Classes used: yes (1) for active, no (0) for inactive

> print(dat)
                                   compound      cat
1  CCN(C(=O)c1cc(C)cc(OC[C@H](C)Nc2ccncc2)c1)C(C)C   no (0)
2  CC(C)c1cccc(C(C)C)c1N1C(=O)c2ccc(O)cc2C1=O  yes (1)
3                Cn1c(=O)c2c(ncn2C)n(C)c1=O   no (0)
4  O=c1n(CC2CO2)c(=O)n(CC2CO2)c(=O)n1CC1CO1 (stereo not drawn)  yes (1)
5   Cn1cnc([N+](=O)[O-])c1Sc1ncnc2nc[nH]c12  yes (1)
6  O=c1[nH]c2ccc(S(=O)CCN3CCC(Cc4ccc(F)cc4)CC3)cc2o1 (stereo not drawn)   no (0)
7                        CC(C)=CCCC(C)=CC=O   no (0)
8  Nc1nc2ncc(CNc3ccc(C(=O)N[C@@H](CCC(=O)O)C(=O)O)cc3)nc2c(=O)[nH]1   no (0)

* * *

# Read-out: Cytochrome P450 4A22 (Homo sapiens) (UniProt Q5TCH4)
# assay.info: LTEA_HepaRG_CYP4A22: Life Technologies and Expression Analysis (LTEA) Assay for Cytochrome P450 4A22 (CYP4A22) using HepaRG (AID 2283495)
# condition.summary: mRNA level, 48 h; actives raise or lower the signal
# Experimental: LTEA_HepaRG is a cell based, multiplexed-readout assay that uses HepaRG, a human liver cell line, with measurements taken at 48 hours after chemical dosing on a 96-well plate.LTEA_HepaRG_CYP4A22 is one of 102 assay component(s) measured in the LTEA HepaRG cell culture assay. It is a marker of NR mediated metabolism.Data from the assay component LTEA_HepaRG_CYP4A22 was analyzed into 1 endpoint. […]
Active and inactive are the calls of the source. The calls were made as follows: active = hit-call score of the fitted dose curve at least 0.9, where 1 is the maximum; inactive = score below 0.9.
Classes used: YES = active, NO = inactive

molecule	cat
CCCCCCc1ccc(O)cc1O	NO
CC(C)=CCCC(C)CCO (stereo not given)	NO
CC1=CC(=O)CC(C)(C)C1	NO
O=C(NS(=O)(=O)/C=C/c1ccccc1)c1ccc(F)cc1Cl	NO
COc1ccc2sc(C(=O)Nc3nnn[nH]3)c(OC(C)C)c2c1	YES
O=C(OC[C@H]1O[C@@H](OC(=O)c2cc(O)c(O)c(OC(=O)c3cc(O)c(O)c(O)c3)c2)[C@H](OC(=O)c2cc(O)c(O)c(OC(=O)c3cc(O)c(O)c(O)c3)c2)[C@@H](OC(=O)c2cc(O)c(O)c(OC(=O)c3cc(O)c(O)c(O)c3)c2)[C@@H]1OC(=O)c1cc(O)c(O)c(OC(=O)c2cc(O)c(O)c(O)c2)c1)c1cc(O)c(O)c(OC(=O)c2cc(O)c(O)c(O)c2)c1	YES
CC(C)(O)c1coc(S(=O)(=O)NC(=O)Nc2c3c(cc4c2CCC4)CCC3)c1	NO
CN(C)c1ccc(Cc2ccc(N(C)C)cc2)cc1	YES
O=C1OC(=O)C2C3C=CC(C3)C12 (stereo not given)	NO
C=CC(=C)CCC=C(C)C	NO
